# assay.overview: Permeability of compound incubated for 16 hrs at pH 7.4 by PAMPA
# Format: ADME
# experimental.conditions: read-out: Peff
The reader will find reported Papp at 16 h values listed item by item below.
// note: answer is a bare numeric in ×10⁻⁶ cm/s

1. Ic1ccccc1CN[C@@H]1C2CCN(CC2)[C@@H]1C(c1ccccc1)c1ccccc1 = 8.24
2. c1ccc(CN[C@@H]2C3CCN(CC3)[C@@H]2Cc2ccccc2)cc1 (relative stereo) = 14.5
3. NC(=O)C(CCN1CCC(O)(c2ccc(Cl)cc2)CC1)(c1ccccc1)c1ccccc1 = 1.78

Kindly review the next compound as well.
Task: For the compound CN(C)C(=O)C(CCN1CCC(O)(c2ccc(Cl)cc2)CC1)(c1ccccc1)c1ccccc1 [LOPERAMIDE] , report Papp at 16 h.
Output: 12.5

* * *

# assay.overview: Permeability of compound incubated for 6 hrs at pH 7.4 by PAMPA
# Format: ADME
# experimental.conditions: read-out: Peff
The reader will find reported Papp at 6 h values listed item by item below.
// note: answer is a bare numeric in ×10⁻⁶ cm/s

1. CN(C)C(=O)C(CCN1CCC(O)(c2ccc(Cl)cc2)CC1)(c1ccccc1)c1ccccc1 [LOPERAMIDE] = 16
2. Ic1ccccc1CN[C@@H]1C2CCN(CC2)[C@@H]1C(c1ccccc1)c1ccccc1 = 10.4
3. c1ccc(CN[C@@H]2C3CCN(CC3)[C@@H]2Cc2ccccc2)cc1 (relative stereo) = 19.2

Kindly review the next molecule as well.
Task: For the molecule "NC(=O)C(CCN1CCC(O)(c2ccc(Cl)cc2)CC1)(c1ccccc1)c1ccccc1" , report Papp at 6 h.
Output: 0.65

* * *

# Tested on: Plasmodium falciparum K1
# assay.overview: Inhibition of CRT CVIET haplotype mutant in chloroquine-resistant Plasmodium falciparum K1 isolate MRA-159 assessed as reversal of chloroquine resistance by measuring reduction in chloroquine IC50 at 500 nM relative to chloroquine alone
Label key: MET means Ratio IC50 under 0.7; NOT MET means Ratio IC50 of 0.7 or more.

Below, 6 compounds whose answers are already recorded.
1. NCC(c1ccccc1)c1ccccc1 = MET
2. CN(C)C(=O)C(CCN1CCC(O)(c2ccc(Cl)cc2)CC1)(c1ccccc1)c1ccccc1 [LOPERAMIDE] = NOT MET
3. NCC(CCN1CCC(O)CC1)(c1ccccc1)c1ccccc1 = NOT MET
4. c1ccc2c(c1)CC(N1CCNCC1)c1ccccc1S2 (stereo unspecified) = MET
5. Ic1ccccc1CN[C@@H]1C2CCN(CC2)[C@@H]1C(c1ccccc1)c1ccccc1 = MET
6. c1ccc(CN[C@@H]2C3CCN(CC3)[C@@H]2Cc2ccccc2)cc1 (relative stereo) = MET

Task: Please indicate whether the reported Ratio IC50 of "NC(=O)C(CCN1CCC(O)(c2ccc(Cl)cc2)CC1)(c1ccccc1)c1ccccc1" is strictly below 0.7.
Output: NOT MET

Task: Please indicate whether the reported Ratio IC50 of CN1CCN(C2Cc3ccccc3Sc3ccc(Cl)cc32)CC1 (stereo unspecified) [CLOROTEPINE] is strictly below 0.7.
Output: NOT MET

Task: Please indicate whether the reported Ratio IC50 of N[C@@H]1C2CCN(CC2)[C@@H]1C(c1ccccc1)c1ccccc1 (relative stereo) is strictly below 0.7.
Output: NOT MET

* * *

# Test system: Chloroquine resistance transporter (Plasmodium falciparum), Q9N623 [K76T]
# Sequence (Q9N623 whole entry K76T): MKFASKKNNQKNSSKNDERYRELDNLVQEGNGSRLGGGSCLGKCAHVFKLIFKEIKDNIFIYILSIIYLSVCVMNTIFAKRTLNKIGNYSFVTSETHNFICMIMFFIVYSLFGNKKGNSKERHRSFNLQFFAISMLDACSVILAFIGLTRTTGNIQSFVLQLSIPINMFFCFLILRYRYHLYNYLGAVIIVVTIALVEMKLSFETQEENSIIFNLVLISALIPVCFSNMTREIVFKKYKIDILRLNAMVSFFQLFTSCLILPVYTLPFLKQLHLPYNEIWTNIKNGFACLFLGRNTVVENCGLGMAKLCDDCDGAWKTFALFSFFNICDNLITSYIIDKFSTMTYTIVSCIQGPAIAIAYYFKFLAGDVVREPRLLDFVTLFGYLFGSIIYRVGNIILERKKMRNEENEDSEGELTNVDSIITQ
# assay.overview: Inhibition of CRT K76T mutant in chloroquine-resistant Plasmodium falciparum Dd2 isolate MRA-156 assessed as reversal of chloroquine resistance by measuring reduction in chloroquine IC50 at 500 nM relative to chloroquine alone
Quick rule: Ratio IC50 of at least 0.6 means fulfilled, below that means not fulfilled.

Below, 2 compounds whose answers are already recorded.
1. Ic1ccccc1CN[C@@H]1C2CCN(CC2)[C@@H]1C(c1ccccc1)c1ccccc1 = not fulfilled
2. N#CC(CCN1CCCCC1)(c1ccccc1)c1ccccc1 = fulfilled

Let us examine a further case.
Task: Decide: Ratio IC50 of "NC(=O)C(CCN1CCC(O)(c2ccc(Cl)cc2)CC1)(c1ccccc1)c1ccccc1" >= 0.6?
Output: fulfilled
